B1: LINE1-full (parent)
chain: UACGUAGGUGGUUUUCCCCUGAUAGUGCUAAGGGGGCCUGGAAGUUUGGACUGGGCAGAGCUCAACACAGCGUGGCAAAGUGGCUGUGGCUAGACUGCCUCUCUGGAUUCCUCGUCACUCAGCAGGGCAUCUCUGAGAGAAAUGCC

- Variants of: B1
- Assay summary: self-cleavage, relative activity (ratio to wild type); higher = more cleavage; in vitro, sequencing; the parent is a self-cleaving ribozyme
Readout: self-cleavage
Numbers only.

INSERT INTO assay_data (sequence_entry, reported_value) VALUES
  ('UACGUAGGUGGUUUUCCCCUGAUAGUGCUAAGGGGGCCUGGAAGUUUGGACUGGGCAGAGCUCAACACAGCGUGGCAAAGUGGCUGUGGCUAGACUGCCUCUCUGGACUACUCGUCACUCAGCAGGGCAUCUCUGAGAGAAAUGCC [U108C C110A]', 1.49),
  ('UACGUAGGUGGUUUUCCCCUGAUAGUGCUAAGGGGGCCUGGAAGUUUGGACUGUGCAGAGCUCAACACAGUGUGGCAAAGUGGCUGUGGCUAGACUGCCUCUCUGGAUUCCUCGUCACUCAGCAGGGCAUCUCUGAGAGAAAUGCC [G54U C71U]', 0.16),
  ('UACGUAGGUGGUUUUCCCCUGAUAGUGCUAAGGGGGCCUGGAAGUUUGGACAGCGCAGAGCUCAACACAGCGUGGCAAAGUGGCUGUGGCUAGACUGCCUCUCUGGAUUCCUCGUCACUCAGCAGGGCAUCUCUGAGAGAAAUGCC [U52A G54C]', 0.43),
  ('UACGUAGGUGGUAUUCCCCUGAUGGUGCUAAGGGGGCCUGGAAGUUUGGACUGGGCAGAGCUCAACACAGCGUGGCAAAGUGGCUGUGGCUAGACUGCCUCUCUGGAUUCCUCGUCACUCAGCAGGGCAUCUCUGAGAGAAAUGCC [U13A A24G]', 0.53),
  ('UACGUAGGUGGUUUACCCCUGAUAGUGCUAAAGGGGCCUGGAAGUUUGGACUGGGCAGAGCUCAACACAGCGUGGCAAAGUGGCUGUGGCUAGACUGCCUCUCUGGAUUCCUCGUCACUCAGCAGGGCAUCUCUGAGAGAAAUGCC [U15A G32A]', 0.66);

Below is a list of variants. For each, state its recorded self-cleavage.
1. UACGUAGAUGGUUUUCCCCCGAUAGUGCUAAGGGGGCCUGGAAGUUUGGACUGGGCAGAGCUCAACACAGCGUGGCAAAGUGGCUGUGGCUAGACUGCCUCUCUGGAUUCCUCGUCACUCAGCAGGGCAUCUCUGAGAGAAAUGCC [G8A U20C]
2. UACGUAGGUGGCUUUCCCCUGAUAGUGCUAAGGGGGCCUGGAAGUUUGGACUGGGCAGAGCUCAACACAGCGUGGCAAAGUGGCUGUGGCUAGACUGCCUCUCUGGAUUCCUCGUCACUCAGCAGAGCAUCUCUGAGAGAAAUGCC [U12C G126A]
3. UACGUAGGUGGUUUUCCCCUGAUAGUGCUAAGGGGGCCUGGAAGUUUGGACUGGGCUGAGCUCAACACAGCGUGGCAAAGUGGCUGUGGCUAGACUGCCUCUCUGGGUUCCUCGUCACUCAGCAGGGCAUCUCUGAGAGAAAUGCC [A57U A107G]
4. UACGUAGGUGGUUUUCCCCUGAUAGUGCUAAGGGGGGCUGGAAGUUUGGACUGGGCAGAGCUCAACACAGCGUGGCAAAGUGGCUGUGGCUAGACUGCCUCUCUGGAUUCCUCGUCACUCAGCAGGGCGUCUCUGAGAGAAAUGCC [C37G A129G]
5. UACGUAGGUGGUUUUCCCCUGAUAGUGCUAAGGGGGCCUGGAAGUUUGGACUGGGCAGAGCUCAACACAGCGUGGCAAAGUGGCUGUGGCCAGACUGCCUCUCUGGAUUCCUCGUCACUCAGUAGGGCAUCUCUGAGAGAAAUGCC [U91C C123U]
6. UACGUAGGUGGUUUUCCCCUGAUAGGGCUAAGGGGGCCUGGAAGUUUGGACUGGGCAGAGCUCAACACAGCGUGGCAAAGUGGCUGUGGCUAGACUGCCUCUCUGGAUUCCUCGUCACUCAGCGGGGCAUCUCUGAGAGAAAUGCC [U26G A124G]

1: 1.59; 2: 1.73; 3: 0.14; 4: 0.9; 5: 0.8; 6: 0.69
